Catalogue of compounds with associated IC50
biological target: type 1 human 5α-reductase (HRED1) (Homo sapiens, UniProt P18405); assay: Cell free assay of 5α-reductase, microsomes of rat 1A cells expressing type 1 isoenzyme (HRED1); format: biochemical; design: expressed in transfected cells; host or cells: rat 1A cells infected with pMV7 retrovirus; microsomes; conditions: cell-free assay; read-out: IC50, type 1 isoenzyme;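 further: microsomes from rat 1A cells expressing human type 1 5α-reductase, conversion of radiolabeled testosterone to dihydrotestosterone quantified by thin layer chromatography with radioanalytic scanning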
Sequence (P18405 whole entry): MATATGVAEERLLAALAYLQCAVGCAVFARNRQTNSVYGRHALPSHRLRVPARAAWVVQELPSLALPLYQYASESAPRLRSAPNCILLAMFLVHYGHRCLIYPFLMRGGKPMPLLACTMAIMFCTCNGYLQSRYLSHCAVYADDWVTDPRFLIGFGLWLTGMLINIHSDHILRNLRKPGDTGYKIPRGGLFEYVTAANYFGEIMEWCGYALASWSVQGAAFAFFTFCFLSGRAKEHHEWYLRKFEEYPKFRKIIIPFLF
assay_readout: IC50

{"compound": "CCCCCC#CCC#CCC#CCC#CCCCC(=O)O [5,8,11,14-Eocpsatetraynoic Acid, 5,8,11,14-eicosatetraynoic acid]", "study_system": "type 1 human 5α-reductase (HRED1) (Homo sapiens, UniProt P18405)", "result": "15 µM"}
{"compound": "COc1cc(/C=C/C(=O)O)ccc1O [Ferulic Acid]", "study_system": "type 1 human 5α-reductase (HRED1) (Homo sapiens, UniProt P18405)", "result": "> 100 µM"}
{"compound": "O=C1c2c(O)cc(O)cc2O[C@H](c2ccc(O)c(O)c2)[C@H]1O [Taxifolin]", "study_system": "type 1 human 5α-reductase (HRED1) (Homo sapiens, UniProt P18405)", "result": "> 100 µM"}
{"compound": "O=c1c(O)c(-c2ccc(O)c(O)c2)oc2cc(O)ccc12 [Fisetin]", "study_system": "type 1 human 5α-reductase (HRED1) (Homo sapiens, UniProt P18405)", "result": "< 100 µM"}
{"compound": "C[C@@H]1O[C@@H](OC[C@H]2O[C@@H](Oc3c(-c4ccc(O)c(O)c4)oc4cc(O)cc(O)c4c3=O)[C@H](O)[C@@H](O)[C@@H]2O)[C@H](O)[C@H](O)[C@H]1O [Rutin]", "study_system": "type 1 human 5α-reductase (HRED1) (Homo sapiens, UniProt P18405)", "result": "> 100 µM"}
{"compound": "CCCCC/C=C\\C/C=C\\C/C=C\\CCCCC(=O)O [Gamma-Linolenic Acid, Gamma-Linolenic Acid C18:3 CIS 6.9,12]", "study_system": "type 1 human 5α-reductase (HRED1) (Homo sapiens, UniProt P18405)", "result": "3 µM"}
{"compound": "C=CCc1ccc(O)c(OC)c1 [Eugenol]", "study_system": "type 1 human 5α-reductase (HRED1) (Homo sapiens, UniProt P18405)", "result": "> 100 µM"}
{"compound": "O=c1c(O)c(-c2ccc(O)c(O)c2)oc2cc(O)cc(O)c12 [Quercitin]", "study_system": "type 1 human 5α-reductase (HRED1) (Homo sapiens, UniProt P18405)", "result": "< 100 µM"}
{"compound": "COc1cc(/C=C/CO)ccc1O [Coniferol]", "study_system": "type 1 human 5α-reductase (HRED1) (Homo sapiens, UniProt P18405)", "result": "> 100 µM"}
